assay: Compound selectivity was assessed using vacuolar type proton ATPase from human kidney cortex (hK)
pIC50: −log10 of the molar value.
Reported property: pIC50

(A) CO/C(=C\C=C/c1cc2cc(Cl)c(Cl)cc2[nH]1)C(=O)NC1CC(C)(C)N(C)C(C)(C)C1
(B) CO/C(=C\C=C\c1cc2cc(Cl)c(Cl)cc2[nH]1)C(=O)NC1CC(C)(C)N(C)C(C)(C)C1
Query block: Which has the smaller recorded pIC50, A or B ? Your answer should be the label of the entry you select.
Result block: A

Just for reference, ChEMBL document CHEMBL1130718 is where these values come from.
